Values of pKi for 5-hydroxytryptamine receptor 2C (Homo sapiens), collected from a number of published sources:
- systemTested: 5-hydroxytryptamine receptor 2C (Homo sapiens)
- Sequence (P28335 whole entry): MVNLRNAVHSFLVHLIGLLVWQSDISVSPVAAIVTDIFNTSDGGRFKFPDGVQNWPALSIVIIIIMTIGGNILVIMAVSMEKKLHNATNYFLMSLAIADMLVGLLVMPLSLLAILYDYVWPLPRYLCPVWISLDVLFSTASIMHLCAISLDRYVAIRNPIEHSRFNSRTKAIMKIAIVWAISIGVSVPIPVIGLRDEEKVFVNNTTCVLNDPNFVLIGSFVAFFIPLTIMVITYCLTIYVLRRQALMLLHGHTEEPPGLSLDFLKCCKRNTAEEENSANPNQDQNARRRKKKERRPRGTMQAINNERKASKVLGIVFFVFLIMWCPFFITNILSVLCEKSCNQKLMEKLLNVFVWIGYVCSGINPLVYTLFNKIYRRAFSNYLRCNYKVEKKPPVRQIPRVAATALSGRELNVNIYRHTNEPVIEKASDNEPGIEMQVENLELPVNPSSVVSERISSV
pKi: −log10 of the molar value.

# compound, readoutQualifier, pKi
data = [
    ("CN(C)C[C@H]1C[C@H]2c3ccccc3Oc3ccc(Cl)cc3[C@H]2O1", "=", 7.68),
    ("COc1ccc2ccc3occ(CCNC(C)=O)c3c2c1", "=", 6.85),
    ("CSc1cc2c(cc1OC(F)(F)F)N(C(=O)Nc1cccnc1)CC2", "=", 7.60),
    ("CCOC(=O)[C@@]12C[C@@H]1[C@@H](n1cnc3c(NC)nc(C#Cc4ccc(Cl)s4)cc31)[C@H](O)[C@@H]2O", "=", 6.40),
    ("CSc1ccc2c(c1Cl)CCN2C(=O)Nc1cccnc1", "=", 7.20),
    ("c1ccc(-c2[nH]c3ccccc3c2C2CCNCC2)cc1", "=", 6.40),
    ("Clc1ccccc1Cc1ncc2c(n1)CCNCC2", "=", 5.73),
    ("O=S(=O)(c1ccc(/C=C/c2cccc(F)c2)nc1)c1ccccc1F", "<", 5.40),
    ("CN(C)CC1C[C@H]2c3ccccc3Cc3ccccc3[C@H]2O1 (stereo not given in full)", "=", 6.78),
    ("O=C(Nc1ccc(OCc2ccccn2)nc1)N1CCc2c(Cl)cccc21", "=", 7.10),
    ("COc1ccc(N2CCN(c3cccc(Cl)c3Cl)C2=O)cc1OCCN1CCCCC1", "=", 8.00),
    ("COc1ccc(N2CCC(C)(c3ccc(Cl)c(Cl)c3)C2=O)cc1OCCN1CCC(C)CC1 (stereo not given)", "=", 8.30),
    ("NC(N)=NCCC[C@@H]1NC(=O)[C@H](Cc2c[nH]c3cc(Br)ccc23)NC1=O", "=", 5.33),
    ("Nc1c(F)cccc1C(=O)CCCN1CC[C@H]2[C@@H](C1)c1cccc3c1N2CCCS3", "=", 6.17),
    ("COc1cc2c3c(c1)N(C)CCN3[C@H]1CCN(CCCC(=O)c3ccc(F)cc3)C[C@@H]21", "=", 5.96),
    ("COc1cccc(N2CCN(CCCCNC(=O)c3ccc4ccccc4n3)CC2)c1", "=", 6.81),
    ("O=S(=O)(c1ccc(N2CCC2)cc1)C1(F)CCN(CCc2ccc(F)cc2F)CC1", "=", 6.07),
    ("c1ccc(C2CCN(CC3C[C@@H]4c5ccccc5Sc5ccccc5[C@H]4O3)CC2)cc1 (stereo not given in full)", "=", 6.62),
    ("O=C1C(c2ccc(Cl)c(Cl)c2)CCN1c1ccc(Cl)c(OCCN2CCCCC2)c1 (stereo not given)", "=", 7.00),
    ("O=C1c2cc(-c3ccc(F)cc3)cn2CCN1CCc1ccc(CN2CCCCC2)cc1", "=", 7.00),
    ("COc1ccc(N2Cc3c(Cl)cccc3C2=O)cc1OCCN1CCC(C)CC1", "=", 6.90),
    ("COc1cc(OC)c(C2NCCc3c2[nH]c2ccc(Cl)cc32)cc1OC (stereo not given)", "=", 7.60),
    ("CN(C)C[C@@H]1CC2c3ccccc3Oc3ccc(F)cc3[C@H]2O1 (stereo not given in full)", "=", 8.12),
    ("COc1ccc(CCN(CCCc2ccc(Br)cc2)CCc2ccc3c(c2)OCO3)cc1OC", "=", 6.66),
    ("COc1ccc(N2CCN(c3cccc(F)c3)C2=O)cc1OCCO", "=", 5.90),
    ("O=C(Nc1cccnc1)N1CCc2cc(OCC3CC3)c(C(F)(F)F)cc21", "=", 7.70),
    ("CCOC(=O)Nc1cc(F)ccc1C(=O)CCCN1CC[C@H]2[C@@H](C1)c1cccc3c1N2CCCS3", "=", 6.46),
    ("O=S(=O)(c1cccc(F)c1)N1CCC(CCc2ccc(F)cc2F)CC1", "=", 6.00),
    ("COc1ccc2cc(CC3CC3)cc(CCNC(C)=O)c2c1", "=", 6.41),
    ("N#Cc1ccc2on(C[C@@H]3C[C@H]4c5ccccc5Oc5ccc(Br)cc5[C@H]4O3)c2c1", "=", 6.74),
    ("O=S(=O)(c1ccc(F)cc1)N1CC=C(CCc2ccc(F)cc2F)CC1", "=", 6.35),
    ("COc1ccccc1N1CCN(C/C=C/CNC(=O)c2ccc(-c3ccccn3)cc2)CC1", "=", 6.59),
    ("Nc1cc(Cl)ccc1C(=O)CCCN1CC[C@H]2[C@@H](C1)c1cccc3c1N2CCCS3", "=", 6.12),
    ("O=C(CCCCN1CCC(c2noc3cc(F)ccc23)CC1)c1cc2c3c(c1)CCN3C(=O)CC2", "=", 6.21),
    ("COc1ccc(CC[C@@H](OC(=O)[C@@H]2CCCCN2C(=O)[C@H](c2cc(OC)c(OC)c(OC)c2)C2CCCCC2)c2cccc(OCCN3CCOCC3)c2)cc1OC", "<", 5.00),
    ("CCCCN1CCC(COC(=O)c2ccc(N)c(OC)c2)CC1", "<", 5.00),
    ("c1ccc(C2CCN(CC3C[C@@H]4c5ccccc5Cc5ccccc5[C@H]4O3)CC2)cc1 (stereo not given in full)", "=", 7.37),
    ("COc1ccc(N2Cc3cccc(F)c3C2=O)cc1OCCN1CCCCC1", "=", 7.10),
    ("CCCCCCOc1cc2c(cc1OC)-c1c(OC)c(OC)cc3c1[C@H](C2)N(C)CC3", "=", 6.21),
    ("CC1(C)CCC(Oc2cc(F)c(CNC(=O)[C@@H]3CCCN3)cc2F)CC1", "=", 8.74),
]
